- MEASURED_TARGET: HLA-B5801 (Homo sapiens, UniProt P01889, A329T/C349S/D201E/D98Y/E176V/E187L/E204Q/E69T/G107R/I218V/I90N/K202T/L105A/L119I/N104I/N87E/Q89R/Q94S/R106L/R155S/R180L/R86G/S101N/S121R/S35A/S48A/T118I/V127L/V306I/V36M/Y140S/Y91M)
- PROTOCOL_SUMMARY: Competitive peptide binding assay, CIR-B5801
- COND: HMy2.CIR-B5801 cells, reference Cy5-[…], class from inhibition at 5 and 15 μM, flow cytometry MFI; read-out: Binding affinity with HLA-B5801
Peptide text beside a SMILES is read from it.
# IC50 annotations

Problem: Consider the compound shown here: CC(C)C[C@H](NC(=O)[C@H](Cc1c[nH]cn1)NC(=O)[C@H](Cc1ccccc1)NC(=O)[C@@H](NC(=O)[C@H](CC(=O)O)NC(=O)[C@H](C)NC(=O)[C@H](Cc1ccc(O)cc1)NC(=O)[C@H](CCC(=O)O)NC(=O)[C@@H](N)CCC(N)=O)C(C)C)C(=O)O [Epitope Y71] (H-QEYADVFHL-OH; N-terminus and C-terminus assumed) What is its recorded IC50?
Result: > 15 µM

Problem: Consider the compound shown here: CC[C@H](C)[C@H](NC(=O)[C@@H]1CCCN1C(=O)[C@@H]1CCCN1C(=O)[C@@H](NC(=O)[C@H](CCCCN)NC(=O)[C@H](Cc1ccc(O)cc1)NC(=O)[C@@H](NC(=O)[C@H](CCC(N)=O)NC(=O)[C@@H](N)CCCCN)[C@@H](C)CC)[C@@H](C)O)C(=O)O [Epitope Y82] (H-KQIYKTPPI-OH; N-terminus and C-terminus assumed) What is its recorded IC50?
Result: 5 to 15 µM

Data origin, for the record: paper PMC12133982
